In this section, each of the variants is paired with its reported yeast fitness.
B1: tRNA (parent)
chain: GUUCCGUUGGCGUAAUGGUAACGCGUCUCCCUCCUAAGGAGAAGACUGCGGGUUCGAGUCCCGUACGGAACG

# Variants of: B1
# ASSAY_DETAILS: yeast fitness relative to wild type (ratio to wild type); higher = fitter; tRNA-Arg(CCU), competitive growth, 37 C, YPD
Variants at the floor of the assay were thinned out.
Provide a numeric answer; units are not to be included.

Please review the entries below; each comes with its answer.
{"MUTANT": "G18A C31U", "yeast fitness": 0.663}
{"MUTANT": "C29G C55U C62U", "yeast fitness": 0.567}
{"MUTANT": "C11U C31U A40C", "yeast fitness": 0.697}

Data request: Param item = G12A G68U ; retrieve measured yeast fitness.
Data returned: 0.863

Data request: Please give the measured yeast fitness for this variant: U16G A20G A69C
Data returned: 0.749

Data request: Request the reported yeast fitness associated with G23A C30U U35C G48C U59A C66U
Data returned: 0.526

Data request: Requested read-out: yeast fitness. Entry: C11A U16C G18C U35C A45C A57C G68C
Data returned: 0.515

Data request: # get_value(readout='yeast fitness', item= G6A C62A )
Data returned: 0.873

Data request: Any idea what yeast fitness was measured for C29A C34U G51A G52C U64C ?
Data returned: 0.663

Data request: yeast fitness for G17C U35G ?
Data returned: 0.554
